system: OVCAR-4 ovarian; experiment: NCI-60 one-dose screen, 48 h (100 = growth as untreated, 0 = no growth, -100 = all killed); details: 10 µM unless noted
This is part of a sample that, as a whole, favours compounds with a hit. Of some 83,000 tested, about 20% had one in any assay. Activity calls are given as the source filed them. Rule for the calls: active = growth percent below 10; inactive = the rest.
The following molecules are listed with their measured growth values.

Sample records with growth:
[
  {
    "MOLECULE": "O=[N+]([O-])CC(O)C(Cl)(Cl)Cl (stereo not drawn)",
    "QUANTITY NAME": "growth",
    "VALUE MEASURED": "94.2% (inactive)"
  },
  {
    "MOLECULE": "CC[C@H](C)[C@H](NC(=O)[C@H]1CCCCN1C)C(=O)N(C)[C@H](CCc1nc(C(=O)N[C@@H](Cc2ccccc2)C[C@H](C)C(=O)OC)cs1)C(C)C",
    "QUANTITY NAME": "growth",
    "VALUE MEASURED": "43.6% (inactive)"
  },
  {
    "MOLECULE": "CC[C@]12C=CCN3CC[C@]4(C(=C(C(=O)OC)C1)Nc1cc(OC)c(OC(C)=O)cc14)[C@@H]32",
    "QUANTITY NAME": "growth",
    "VALUE MEASURED": "38.6% (inactive)"
  }
]

Input line: Look at this molecule and give its reported growth. "Cc1c(NS(=O)(=O)c2ccccc2)ccc([N+](=O)[O-])c1Cl"
Output line: 47.3% (inactive)

Input line: Record: "COC(=O)[C@@H](C)C[C@H](Cc1ccccc1)NC(=O)c1csc([C@@H](C[C@H](C(C)C)N(C)C(=O)[C@@H](NC(=O)C23CC(NC(C)=O)(C2)C3)C2CC2)OC(C)=O)n1"
Output line: 77.7% (inactive)

Input line: Please do the same for NC(=O)C(Br)c1ccccc1 (stereo not drawn) as well.
Output line: 89.6% (inactive)

Input line: Same question, "O[C@H](CN1CC1)[C@@H](O)CN1CC1" this time
Output line: 93.1% (inactive)

Input line: For "CCOC(=O)[C@@H](C)C[C@H](Cc1ccccc1)NC(=O)c1csc([C@@H](C[C@H](C(C)C)N(C)C(=O)[C@H](CCC(C)C)NC(=O)[C@H]2CCCCN2C)OC(C)=O)n1" then?
Output line: 48.2% (inactive)

Values from PubChem BioAssay (NCI)
